A collection of compounds and their measured pIC50
# TGT: α4β1 integrin (Homo sapiens (Human), UniProt P05556+P13612)
# Sequence (P13612 34-1032): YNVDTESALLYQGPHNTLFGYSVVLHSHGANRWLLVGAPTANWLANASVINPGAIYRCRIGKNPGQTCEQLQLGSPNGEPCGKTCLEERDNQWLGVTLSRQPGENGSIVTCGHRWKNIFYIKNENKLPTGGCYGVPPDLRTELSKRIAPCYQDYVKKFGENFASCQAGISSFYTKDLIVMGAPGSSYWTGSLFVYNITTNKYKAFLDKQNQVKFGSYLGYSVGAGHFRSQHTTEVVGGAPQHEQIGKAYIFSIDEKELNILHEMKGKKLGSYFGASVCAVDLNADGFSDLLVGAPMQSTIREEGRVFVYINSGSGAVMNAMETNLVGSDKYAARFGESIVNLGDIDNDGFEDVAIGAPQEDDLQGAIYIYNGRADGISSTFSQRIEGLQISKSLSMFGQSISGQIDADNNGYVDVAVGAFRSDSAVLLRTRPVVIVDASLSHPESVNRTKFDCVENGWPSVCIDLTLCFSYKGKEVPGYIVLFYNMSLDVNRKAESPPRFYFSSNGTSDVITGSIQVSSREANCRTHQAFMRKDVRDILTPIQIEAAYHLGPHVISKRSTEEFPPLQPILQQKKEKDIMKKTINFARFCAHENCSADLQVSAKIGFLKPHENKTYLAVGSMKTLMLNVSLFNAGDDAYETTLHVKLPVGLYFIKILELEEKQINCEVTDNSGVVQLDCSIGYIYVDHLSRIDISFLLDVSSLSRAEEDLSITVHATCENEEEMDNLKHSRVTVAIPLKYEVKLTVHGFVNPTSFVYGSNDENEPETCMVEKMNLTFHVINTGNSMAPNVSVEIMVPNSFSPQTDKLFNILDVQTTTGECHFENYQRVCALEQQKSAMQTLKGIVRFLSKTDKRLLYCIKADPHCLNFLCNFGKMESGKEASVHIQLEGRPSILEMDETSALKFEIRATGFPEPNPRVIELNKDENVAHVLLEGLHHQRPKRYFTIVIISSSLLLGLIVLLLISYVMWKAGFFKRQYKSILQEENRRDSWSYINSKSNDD
# Sequence (P05556 21-798): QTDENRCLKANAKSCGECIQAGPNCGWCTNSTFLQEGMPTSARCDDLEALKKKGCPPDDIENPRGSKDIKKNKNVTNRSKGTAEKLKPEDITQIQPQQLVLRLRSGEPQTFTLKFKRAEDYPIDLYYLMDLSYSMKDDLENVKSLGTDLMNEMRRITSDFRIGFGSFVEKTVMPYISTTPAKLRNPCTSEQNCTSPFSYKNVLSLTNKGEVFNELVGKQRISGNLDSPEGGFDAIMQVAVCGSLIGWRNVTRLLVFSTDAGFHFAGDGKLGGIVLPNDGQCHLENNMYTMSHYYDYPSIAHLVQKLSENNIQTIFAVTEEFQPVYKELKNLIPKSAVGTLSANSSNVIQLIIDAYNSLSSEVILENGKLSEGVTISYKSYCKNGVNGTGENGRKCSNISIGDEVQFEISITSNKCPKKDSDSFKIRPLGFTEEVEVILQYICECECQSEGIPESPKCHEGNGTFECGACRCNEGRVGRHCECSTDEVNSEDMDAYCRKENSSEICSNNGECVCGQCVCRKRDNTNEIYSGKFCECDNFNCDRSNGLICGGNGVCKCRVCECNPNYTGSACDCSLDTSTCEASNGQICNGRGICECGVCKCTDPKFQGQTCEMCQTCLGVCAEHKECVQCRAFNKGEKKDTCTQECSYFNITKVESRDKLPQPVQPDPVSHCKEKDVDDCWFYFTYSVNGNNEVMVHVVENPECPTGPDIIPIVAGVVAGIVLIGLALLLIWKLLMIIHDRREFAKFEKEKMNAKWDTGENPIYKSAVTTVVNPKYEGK
# MEASUREMENT_DESCRIPTION: Integrin Adhesion Assay: Protocol 5 (VCAM-coated plate, RPMI-8866 cells with stable LOF mutation of the ITGB7 gene)
# Assay type: cell-based
# PARTICULARS: Protocol 5; RPMI-8866 cells with LOF mutation of ITGB7, VCAM; read-out: Mean IC50 α4β1 KO
pIC50: −log10 of the molar value.

1) COc1ccc(CCN2CCCCC2)cc1-c1cccc2c(C[C@H](NC(=O)C3(C(F)(F)F)CCN(CC(F)(F)F)CC3)C(=O)O)cccc12 [Compound 731]    6.00 to 7.00
2) COCc1ccc2c(c1)c(C(F)(F)F)c(-c1cccc3c(CC(NC(=O)c4c(F)cccc4F)C(=O)O)cccc13)c(=O)n2C (stereo not drawn) [Compound 1041]    < 6.00

Proceeding to the next compound to report its pIC50.
Reported pIC50 ( COc1cc2c(c(C(F)(F)F)c1-c1cccc3c(C[C@H](NC(=O)C4(C(F)(F)F)CCN(CC(F)(F)F)CC4)C(=O)O)cccc13)CCN(C)C2 [Compound 726] ) = 7.00 to 8.00

These measurements were taken from patent US20250313535A1.
